# Protocol notes: Encapsulation efficiency of RNA (QUANT-IT RIBOGREEN RNA assay)
# Type: physicochemical
# Condition parameters: Table 1A

{"columns": ["Compound", "EE (%)"],
 "data": [
  ["CCCCCCCCCOC(=O)CCCCCCCN(CCCCO)CCCCCCCC(=O)OC(CCCCCCCC)CCCCCCCC", "96.72%"],
  ["CCCCCCCCCOC(=O)CCCCCCCN(CCCCCCCC(=O)OC(CCCCCCCC)CCCCCCCC)CCCNC(=O)NC", "99.0%"],
  ["CCCCCCCCC(CCCCCCCC)OC(=O)CCCCCCCN(CCO)CCCCCCCC(=O)N(C)CCCCCCCC", "89.15%"],
  ["CCCCCCCCCOC(=O)C(C)CCCCCCN(CCO)CCCCCCCC(=O)OC(CCCCCCCC)CCCCCCCC (centres unmarked)", "91.2%"],
  ["CCCCCCCCC(CCCCCCCC)OC(=O)CCCCCCCN(CCO)CCCC(=O)OC1CCC(CCCCC)CC1 (centres unmarked)", "98%"],
  ["CCCCCCCCCN(CCCO)CCCCCCCC(=O)OC(CCCCCCCC)CCCCCCCC", "86.10%"],
  ["CCCCCCCCCOC(=O)CCCCCCCN(CCCCCCCC(=O)OC(CCCCCCCC)CCCCCCCC)CC(O)CC (centres unmarked)", "92.28%"],
  ["CCCCCCCCCOC(=O)CCCCCCCN(CCO)CCCCCCCC(=O)OC(CCCCCC)CCCCCC", "95.18%"]
]}

###

Reported pKa values for a set of compounds
# Protocol notes: Apparent (surface) pKa of the LNP formulation (TNS assay)
# Format: physicochemical
# Condition parameters: Table 6
# Experimental: Using sodium hydroxide (1 M) and hydrochloric acid (1 M), 21 unique buffers were prepared from the master buffer stock at pH values between about 3 and 12. […] After careful mixing, the resulting fluorescence values were read for each plate to create a sigmoidal plot of the fluorescence values vs. buffer pH. […]

{"columns": ["Compound smiles", "pKa"],
 "data": [
  ["CCCCCCCCCN(CCO)CCCCCCCC(=O)OC(CCCCCCCC)CCCCCCCC", 6.72],
  ["CCCCCCCCC(CCCCCCCC)OC(=O)CCCCCCCN(CCO)CCCCCCCC(=O)OC(CCCCCCCC)CCCCCCCC", 6.00],
  ["CCCCCCCCCOC(=O)CCCN(CCO)CCCCCCCC(=O)OC(CCCCCCCC)CCCCCCCC", 6.64],
  ["CCCCCCCCCOC(=O)CCCCCCCN(CCO)CCCCCCCC(=O)OC(CCCCCCCC)CCCCCCCC", 6.56],
  ["CCCCCCCCCOC(=O)CCCCCCCN(CCCCO)CCCCCCCC(=O)OC(CCCCCCCC)CCCCCCCC", 6.87]
]}

###

Catalogue of AST readings, one per entry.
# Protocol notes: ALT and AST after intravenous administration to rat (Table 19A)
# Assay type: in vivo
# Condition parameters: 0.2 mpk

{"columns": ["Compound", "AST"],
 "data": [
  ["CCCCCCCCC(C)OC(=O)CCCCCCCN(CCO)CCCCCCCC(=O)OC(CCCCCCCC)CCCCCCCC (stereo not shown) [Compound 48]", "140.8 international units"],
  ["CCCCCCCCC(CC)OC(=O)CCCCCCCN(CCO)CCCCCCCC(=O)OC(CCCCCCCC)CCCCCCCC (stereo not shown) [Compound 49]", "99.4 international units"],
  ["CCCCC/C=C\\C/C=C\\CCCCCCCCC(CCCCCCCC/C=C\\C/C=C\\CCCCC)OC(=O)CCCN(C)C [MC3, DLin-MC3-DMA, reference compound]", "134.8 international units"],
  ["CCCCCCCCC(CCC)OC(=O)CCCCCCCN(CCO)CCCCCCCC(=O)OC(CCCCCCCC)CCCCCCCC (stereo not shown) [Compound 50]", "143.2 international units"]
]}
